I'd be grateful if you could share measured IC50 for these entries.
System: HT-29 cells
Assay: MTT cytotoxicity assay, HT-29
Assay type: cell-based
Conditions: Homo sapiens, HT-29; MTT, 24 h incubation; read-out: IC50 µM ± SD against HT-29
# unit: µM | format: bare number

# query: IC50 of entry O=C(NCCCNc1c2c(nc3ccccc13)CCCC2)c1ccc(I)cc1 [Compound 1h]
9.4

O=C(NCCNc1c2c(nc3ccccc13)CCCC2)c1ccccc1I [Compound 1a] , same question.
17.3

One more molecule: O=C(NCCCCNc1c2c(nc3ccccc13)CCCC2)c1ccc(I)cc1 [Compound 1i]
5.9

Entry O=C(NCCCNc1c2c(nc3ccccc13)CCCC2)c1cccc(I)c1 [Compound 1e] please
11

Then what about the molecule O=C(NCCCNc1c2c(nc3ccccc13)CCCC2)c1ccccc1I [Compound 1b] ?
16.1

Then what about the molecule O=C(NCCNc1c2c(nc3ccccc13)CCCC2)c1cccc(I)c1 [Compound 1d] ?
7.62

How about this molecule: O=C(NCCNc1c2c(nc3ccccc13)CCCC2)c1ccc(I)cc1 [Compound 1g]
8.16

Try this molecule next: O=c1[nH]cc(F)c(=O)[nH]1 [5-Fluorouracil, reference compound]
1630

O=C(NCCCCNc1c2c(nc3ccccc13)CCCC2)c1ccccc1I [Compound 1c] , same question.
13.6

# credit: paper PMC6745035
